Attribution: PubChem BioAssay (NCI)

System: KM12 colon
experiment.description: NCI-60 one-dose screen, 48 h (100 = growth as untreated, 0 = no growth, -100 = all killed)
experimental.context: 10 µM
This is part of a sample that, as a whole, favours compounds with a hit. Of some 83,000 tested, about 20% had one in any assay.
quantity.measured: growth (%)
Write it as a number; the unit % goes unstated.

API: value(readout=growth, system=KM12 colon) for record "COc1ccc(/C=C/C(=O)Nc2ccc(-c3nc4ccc(F)cc4s3)cc2)cc1"
101

Moving on to the next compound: "Nc1nc(-c2ccccc2Cl)cc(-c2ccc(Cl)cc2Cl)n1"
53.8

// same read-out, input: "COc1ccc(-c2nc3sc(-c4ccc(OC)cc4)c(-c4ccc(OC)cc4)n3c2/C=C/c2ccc(C(C)C)cc2)cc1"
102

What would you report for "CC(C)(C#N)Nc1ccccc1" ?
115

Moving on to the next compound: "COc1ccc2c(c1)O/C(=C\c1ccc([N+](=O)[O-])s1)C2=O"
5.98

Likewise for "Clc1cccc(-c2nc(-c3cccs3)no2)c1" ?
92.4

Subsequent entry: "Cc1cccc(Cl)c1NC(=O)c1ccc2nc(NC(=O)NC3CCN(C)CC3)sc2c1"
105

Now the compound COc1ccc(C2=Nc3c(C)nn(-c4ccccc4)c3NC(c3ccc(Oc4ccnc5cc(Cl)ccc45)c(OC)c3)C2)cc1 (stereo not given)
85.4

Please give the result for "COc1cc(-c2nc(-c3nnc(-c4ccc(F)c(Cl)c4)o3)c3ccccn23)cc(OC)c1OC" too.
5.68

Then "CC(=O)c1nc2ccccc2n1CCNC(N)=O" ?
66.4

----------
Tested on: HCT-116 colon
experiment.description: NCI-60 one-dose screen, 48 h (100 = growth as untreated, 0 = no growth, -100 = all killed)
experimental.context: 10 µM
This is part of a sample that, as a whole, favours compounds with a hit. Of some 83,000 tested, about 20% had one in any assay.
Answer each item with its documented growth.
Give the number; % is assumed, so skip it.

Return growth measured with HCT-116 colon given this compound: "COc1cc(Nc2ccnc(NCCCNc3ccnc4cc(Cl)ccc34)n2)cc(OC)c1"
-53.6

O=C1OCC2=C1C(c1ccc(Cl)c(Cl)c1)c1cc3c(cc1N2CCO)OCCO3 (stereo not given) , same question.
19.8

Then this compound: CCc1ccc2c(c1)N(CCO)C1=C(C(=O)OC1)C2c1cc(OC)c(OC)c(OC)c1 (stereo not given)
7.59

Note, next up: "O=S(=O)(NCCCNc1nccc(-c2c(-c3ccc(F)cc3)nc3sccn23)n1)c1ccc2ccccc2c1"
37.2

Same thing, different compound: "C#Cc1ccc(-n2c(/C=C/c3ccc(C(F)(F)F)cc3)nc3ncccc3c2=O)cc1"
1.75

Next: C=C1c2c(C)nn(-c3ccc(OC)cc3)c2N(C)C23C[C@@H]1C1(C)c4c(C)nn(-c5ccc(OC)cc5)c4N(C)C(C)(C[C@H]12)C3 (stereo not given in full)
16.7

Another: "O=C(O)CCCCSc1ncnc2nc[nH]c12"
103

Try the compound "CN1CCCNc2c(c(=O)c2=O)NCCCN(C)CCCNc2c(c(=O)c2=O)NCCCN(C)CCCNc2c(c(=O)c2=O)NCCCN(C)CCCNc2c(c(=O)c2=O)NCCCN(C)CCCNc2c(c(=O)c2=O)NCCCN(C)CCCNc2c(c(=O)c2=O)NCCCN(C)CCCNc2c(c(=O)c2=O)NCCC1"
59.2

Please answer likewise for Nc1c(C(=O)Nc2ccccc2)sc2nc3c(cc12)C(O)CCC3 (stereo not given)
22

// same read-out, input: "CSC1=NCCCC1"
109

Do the same for CCCCN(CCCC)CCCCCCCCC(O)c1cc2ccccc2c2ccccc12 (stereo not given) please
22.7

Now consider Nc1ncn(C2OC(CO)C(O)C2O)c(=O)n1 (stereo not given) and answer again.
-32

Repeat with "FC(F)(F)c1ccc2nc(-c3nc(-c4ccccc4)n4ccccc34)[nH]c2c1"
8.85

Now consider CC(=O)N1N=C(c2ccc(Cl)cc2)CC1c1sc(Cl)nc1Cl (stereo not given) and answer again.
75.9

Now the compound "O=C(C[P+](c1ccccc1)(c1ccccc1)c1ccccc1)C[P+](c1ccccc1)(c1ccccc1)c1ccccc1"
-93.3

Now the same for "CCCCCCCCCCCCCC[n+]1ccc(C(N)=O)cc1"
6.07

Same read-out for "CS(=O)(=O)Nc1cccc(-c2cc(-c3ccccc3Cl)c(C#N)c(N)n2)c1" ?
21.8

Another compound to check: "COc1ccc(OC)c(/C=C/c2nnc(Nc3ccc(Cl)cc3)o2)c1"
21.9

Same question, COc1cc([C@@H]2c3cc4c(cc3C(Br)[C@H]3COC(=O)[C@H]23)OCO4)cc(OC)c1OC (stereo not given in full) this time
-34.7

Here is the next compound: "CN(C)CCS(=O)(=O)CCN(C)C"
96.9

Param item: "COc1ccc(/C=C2/CN(CCC#N)C/C(=C\c3ccc(OC)cc3)C2=O)cc1"
-68.2

For "COc1ccc(-c2nn(-c3cccc(NC(=O)c4ccc(Cl)c(Cl)c4)c3)cc2-c2ccncc2)cc1Cl" then?
69.6

How about this compound: "Clc1ccc(-c2cn(-c3ccccc3)c(-c3ccccc3)n2)c(Cl)c1"
-100

Now give it for CCCCCCN1C(=O)C2=C(c3ccc(Cl)cc3)Nc3c(c(C)nn3-c3ccccc3)C2c2ccccc21 (stereo not given) too.
87.9

Note, next up: O=C(N/N=C/c1ccccc1)C(Oc1ccccc1)c1ccccc1 (stereo not given)
87.2

Same again, this time with COc1cc(/C=C2\CCCC3=C2N=C2SC=NN2C3c2cc(OC)c(OC)c(OC)c2)cc(OC)c1OC (stereo not given)
-23.5

How about this compound: "Cc1ccc(NC(=O)Nc2nc3ccccc3s2)cc1NC(=O)Nc1nc2ccccc2s1"
84.9

Thanks! And "Cc1cc(N(CCCNc2ccnc3cc(Cl)ccc23)Cc2cccs2)nc(Cl)n1" ?
21.4

Try this compound next: "COc1ccc(-c2nc3sccn3c2-c2nc3c([nH]2)C(=O)c2ccccc2C3=O)cc1"
91

Follow-up entry: "CCOC(=O)N/N=C\C(C)=N\NC(=O)OCC"
104

// same read-out, input: "COc1ccc(-c2cc(/C=C3\C(=O)Nc4ccc(Cl)cc43)[nH]n2)cc1OC"
73.2

Same lookup for "Cc1cc(C)c(CCc2cc(C)c(C)cc2C)cc1C" , please.
106

"COC(=O)C(=C\c1ccc2c(c1)OCO2)/C(=C/c1ccc2c(c1)OCO2)C(=O)OC" , same question.
92.9

Repeat with "CCN(CCCCCCN1CC(=O)N(CCCCCCN(CC)Cc2ccccc2OC)CC1=O)Cc1ccccc1OC"
37.6

Param item: "O=C(O)c1ccc(P(=O)(O)O)c([N+](=O)[O-])c1"
113

Also "CN(Cc1ccccc1)Cc1ccc([N+](=O)[O-])cc1I" , if possible.
84

Another compound to look at: "C#Cc1ccc(-n2c(/C=C/c3ccc(O)cc3)nc3ncccc3c2=O)cc1"
48.5

Now the compound "O=c1c2ccccc2nc(SCCN2CCCCC2)n1CCc1ccccc1"
74

Another compound to check: "COc1cc2nc(Nc3cccc(NC(C)=O)c3)nc(N)c2cc1OC"
95.9

Would you kindly repeat that for CCN1CCC(CCOC)(CN2c3ccccc3Sc3ccc(Cl)cc32)C1 (stereo not given) ?
28.8
